Tested on: MS2 coat protein
Assay: apparent KD of MS2 coat protein; designed switch direction (-1 OFF switch, 1 ON switch): -1; higher = weaker reporter binding
Conditions: Eterna round: R95; input ligand: microRNA oligo, concentration not stated
Listing: apparent KD of MS2 coat protein of selected sequences

Sequence Data	Assay Target	apparent KD of MS2 coat protein
AAAAGGCUAGGAUAUACAUGAGGAUCACCCAUGUGAGGGCACGGCCGGCGCGGGCCCGGUAGAAGGAGUCAAAA [Exc;s3-IX] (puzzle: Exclusion 3)	MS2 coat protein	13.4 nM
AGGCAGCAAGGAUAUACAUAAUUCCUACAAGUCAGCAUAGGACAUGAGGAUCACCCAUGUAGAAGGUGCAAAGA [Soesquma] (puzzle: Exclusion 2)	MS2 coat protein	24.5 nM
CUCAUGUGAGGAUAUAGUACUUCUUCUAUUAUUAUUGAGUACUAGAAGGCACAUGAGGAUCACCCAUGUAGUAC [Ex4 - 3 - 44] (puzzle: Exclusion 4)	MS2 coat protein	23.8 nM
UCUGGUCGGAAGGAUAUGGUCGGGUCAAAUCGUCCAGAAGGUCUGACAUGAGGAUCACCCAUGUGAGUCCAAAG [Ataesma] (puzzle: Exclusion 6)	MS2 coat protein	20.4 nM
UUUUAACAUGAGGAUCACCCAUGUGAGGAUAUCGAAAUUUAUAUUUAUAUUAAUAAAUCGAGAAGGCACAUUUU [JMF 76] (puzzle: Exclusion 1)	MS2 coat protein	119 nM
ACUAGAUGAGGAUAUGCAUGUUUUCAUGUUCUUCUAGAUUAACAUGAGGAUCACCCAUGUAGAAGGCGUCUUAU [Exclusion 2 - 30] (puzzle: Exclusion 2)	MS2 coat protein	18.4 nM
GUGGUCCGAGGAUAUAUUAUGUGAUACAUGAGGAUCACCCAUGUUAUAUGAUGGAUGUUAGUAGAAGGCGGACUAC [Mat - Exclusion 5 - JL mod - D82] (puzzle: Exclusion 5)	MS2 coat protein	86.2 nM
GACUGGACGUGGUCUGGUUACAUGAGGAUCACCCAUGUAGGUCUAAGAACAUGCCUUUUGUACGCUCGUCUUAUAUA [JR_SV3TOV1_Sub065] (puzzle: Sensor v3, turn-off variant 1)	MS2 coat protein	20.7 nM
CGAGUGUAAGGAUAUUCGGCGCCAGGGAACGACCUGGCGUAGAAGAAGGUACAUGAGGAUCACCCAUGUGGUUA [Issobi] (puzzle: Exclusion 4)	MS2 coat protein	142 nM
CCAUGUUAGCAGGAUAUGCAAUAAAUCUUUUAUGCAGAAGGGCUUACAUGAGGAUCACCCAUGUAUUAAGUCAA [JR_E6_Sub078] (puzzle: Exclusion 6)	MS2 coat protein	36 nM
UUGAAGUAAGGAUAUACAUGAGGAUCACCCAUGUGGAGGAAGGUGAUGGGAGUAGGUAGUAGAAGGUACGAGGA [JR_Exclu3_Sub063] (puzzle: Exclusion 3)	MS2 coat protein	100 nM

* * *

Tested on: K4 kissing-loop RNA reporter;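 also: bound reporter read as fluorescence of individual clusters on recovered sequencing chips by microscopy, with normalized cluster intensities fitted with a binding model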
Assay: apparent KD of K4 kissing-loop reporter; higher = weaker reporter binding
Details: Eterna round: R107; input ligand: arginine 13.2 mM
Use met when the recorded apparent KD of K4 kissing-loop reporter is no lower than 200 nM; use not met when it is lower.

Sequence Data	Class Name
UUUCGGCCCAGUGAUGUUGGGUGGAGGCGGCGAGGACCGGUACGGCCGCCACUCGGCGCACUGGCGGAGUGAUGUUUCGUGUAUA [Same State Tryptophan A GF 14]	met
GCCUGGGCACGAAGGAGCGCCGUGACAGGUUACUGCAUUGGGCAGUGAUGUUGCUCAAUCUGGCAGGUAGGUCGCGUGCCCAGGC	not met
AUUUAGACGAGUGAUGUUCGUGUUAUUACAGAGGAUAUGCGUGAUUGCAGAAGGCUGUAUUUAUAUAUGUUAUGUGGUUUUAAAA [whbob_Ex_FMNA__2th186]	not met
UCGGACCCUGGAGGAUAUGAGUCGAGUGAUGUUUGGCGGUCCAUGCCGGUGCGGCGUUAUGCCCUUUUAGAAGGCCAGGGUCCGA [#2 Exclusion - FMN B Attempt #13 (HarryS)]	not met
UACAUAUAGUUAUUUCUACAUUUAUUUAGUCAGGAUAUCGAUUAGACGAGAAGGGACAAUAUCAAGUGAUGUUUGAUAAUUCAAA [JR_ExcFMNA_Sub011]	not met
UGUGUUGUUGUGAUGUUUAGUGUUGUUGGGCAGGAUAUCGUAGAGGCGAGAAGGGCUUGUGUGCUGUAUGAGUGAUGUUUGUAGG [xrrxmullin]	met
AACGCAAGUUGUCUGGUAGACAUUUCAGAUACCAGACAUAGUGAUGUCCCUUGGCAGCUGAACAUCCAGUGAUGUUGGAUACGUU [Theo A SS t11a]	met
UGUGAACAAAAGUAGAGUGGACCACUAUAGCGAGGACCGGUACGGCCGCCACUCGUGUAUGAAUUCAGUGAUGUUGAAAAGAGCU [whbob_EX_Tryp_A_t11]	not met
GUCUCAAAAGAGGCAAGCACUCACGAGGACAAGGAUAUCAUCUCAAUGAGAAGGUGUCCUCGUCCCUAGUGAUGUUAGGGAGUGC [Omei KL FMN A SS E v2]	met
AAUUUAUUAACUGAUACCAGACUUAAUAAAUUUUAAAUCACUAGUGAUGUUAGUGAAUAUGUCCCUUGGCAGCAGUAUUUAUUAA [JR_SSTheophyB_Sub023]	not met
GGCCGGAAGGCGAGCGCUCCCACUCCGGAAGGAGCGCCCGCAAGGGCAGGUAGGUCGCCGGAGUGAUGUUCCGGUGGAGGGCUCG [#2 Exclusion - Arginine A Attempt #20 (Inspired by Omei)]	met
UUGUUUUACUGAAGGAGCGGCAAUUGAUACGUAGAUAUAGUGAUGUUAUAUAAGAUAGAGAGCCAGGUAGGUCGCAGAUUUGUUU [ExArgB.U]	not met
